Values were extracted from ChEMBL document CHEMBL5046282.

Entries and their measured inhibition at 30 µM follow.
# ASSAYED TARGET: Nav1.5 (Homo sapiens, UniProt Q14524)
# Sequence (Q14524 whole entry): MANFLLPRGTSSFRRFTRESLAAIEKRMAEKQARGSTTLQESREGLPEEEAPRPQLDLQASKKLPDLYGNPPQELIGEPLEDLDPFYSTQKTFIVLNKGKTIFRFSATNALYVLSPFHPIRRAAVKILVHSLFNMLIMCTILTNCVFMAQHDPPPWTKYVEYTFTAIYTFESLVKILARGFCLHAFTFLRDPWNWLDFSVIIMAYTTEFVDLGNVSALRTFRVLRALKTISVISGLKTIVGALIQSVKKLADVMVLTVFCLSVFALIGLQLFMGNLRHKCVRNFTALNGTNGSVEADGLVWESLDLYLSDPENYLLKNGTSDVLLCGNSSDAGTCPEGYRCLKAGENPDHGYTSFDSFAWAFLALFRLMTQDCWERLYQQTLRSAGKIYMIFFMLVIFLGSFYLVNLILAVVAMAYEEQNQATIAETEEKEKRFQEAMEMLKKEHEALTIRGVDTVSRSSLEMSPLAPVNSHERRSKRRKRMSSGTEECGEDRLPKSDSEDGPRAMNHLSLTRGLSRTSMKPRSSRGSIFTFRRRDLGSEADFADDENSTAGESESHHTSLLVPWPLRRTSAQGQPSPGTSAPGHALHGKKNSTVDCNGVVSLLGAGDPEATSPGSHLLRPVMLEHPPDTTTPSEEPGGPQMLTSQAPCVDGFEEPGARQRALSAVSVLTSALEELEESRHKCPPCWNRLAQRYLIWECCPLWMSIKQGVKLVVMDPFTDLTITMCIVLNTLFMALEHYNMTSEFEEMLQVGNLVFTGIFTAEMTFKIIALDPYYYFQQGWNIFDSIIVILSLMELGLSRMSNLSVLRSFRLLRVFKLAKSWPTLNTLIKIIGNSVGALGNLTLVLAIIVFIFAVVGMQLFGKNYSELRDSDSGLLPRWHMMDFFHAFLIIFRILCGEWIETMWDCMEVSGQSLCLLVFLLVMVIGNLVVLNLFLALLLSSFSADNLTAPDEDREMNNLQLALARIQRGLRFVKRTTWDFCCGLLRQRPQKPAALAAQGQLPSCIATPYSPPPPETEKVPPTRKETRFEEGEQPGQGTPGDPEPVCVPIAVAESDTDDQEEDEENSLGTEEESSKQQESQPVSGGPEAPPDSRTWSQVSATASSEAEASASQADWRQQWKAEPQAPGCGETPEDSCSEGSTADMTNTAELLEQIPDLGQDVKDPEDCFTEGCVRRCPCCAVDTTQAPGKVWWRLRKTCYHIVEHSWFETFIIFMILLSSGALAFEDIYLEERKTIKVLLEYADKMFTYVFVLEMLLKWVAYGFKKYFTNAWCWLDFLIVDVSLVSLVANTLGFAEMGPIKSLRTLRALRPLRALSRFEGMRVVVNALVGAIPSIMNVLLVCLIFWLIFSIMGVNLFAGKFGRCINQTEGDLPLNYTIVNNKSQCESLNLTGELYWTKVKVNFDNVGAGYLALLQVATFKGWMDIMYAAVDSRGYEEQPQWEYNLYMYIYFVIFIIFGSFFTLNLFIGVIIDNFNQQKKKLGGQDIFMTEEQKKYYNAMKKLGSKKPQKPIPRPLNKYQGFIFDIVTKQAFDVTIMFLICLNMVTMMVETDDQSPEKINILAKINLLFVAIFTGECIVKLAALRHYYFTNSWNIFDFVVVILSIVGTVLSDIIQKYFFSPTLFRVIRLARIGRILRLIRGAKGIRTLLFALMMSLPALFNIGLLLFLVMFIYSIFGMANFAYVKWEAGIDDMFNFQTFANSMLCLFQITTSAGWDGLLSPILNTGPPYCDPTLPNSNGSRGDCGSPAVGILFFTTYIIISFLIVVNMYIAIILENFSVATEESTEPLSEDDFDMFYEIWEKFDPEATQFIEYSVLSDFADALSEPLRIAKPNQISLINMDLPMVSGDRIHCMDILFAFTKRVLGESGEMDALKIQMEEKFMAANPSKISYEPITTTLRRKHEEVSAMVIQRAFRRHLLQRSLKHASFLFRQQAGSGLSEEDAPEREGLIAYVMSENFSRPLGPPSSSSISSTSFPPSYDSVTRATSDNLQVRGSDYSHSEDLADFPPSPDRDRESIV
# METHOD NOTES: Inhibition of human Nav1.5 at 30 uM by automated whole cell patch clamp assay
# Type: toxicity
Use % as the unit, but write only the number.

- SMI: "CC(C)(O)c1ccc(NC(=O)c2ccnn(-c3ccccc3OCC(F)(F)F)c2=O)cc1"
  ASSAYED TARGET: "Nav1.5 (Homo sapiens, UniProt Q14524)"
  inhibition at 30 µM [%]: 20

(Q) Param readout = inhibition at 30 µM; param system = Nav1.5 (Homo sapiens, UniProt Q14524); param query = `CC(C)(O)c1ccc(N2Cc3c(ccnc3-c3ccc(F)cc3OCC(F)(F)F)C2=O)cc1` ; response: value
(A) 7.1
